tested.system: human TLR9 (Homo sapiens, UniProt Q9NR96)
measurement.description: TLR9 inhibition reporter assay (HEK-Blue SEAP reporter, ODN2006 stimulation)
test.parameters: HEK-Blue cells overexpressing human TLR9, SEAP reporter, ODN2006 5 nM, 22 hour incubation
Excerpt: TLR7/8/9 Inhibition Reporter Assays HEK-Blue™-cells (Invivogen) overexpressing human TLR7, TLR8 or TLR9 receptors were used for screening inhibitors of these receptors using an inducible SEAP (secreted embryonic alkaline phosphatase) reporter gene under the control of the IFN-β minimal promoter fused to five NF-κB and AP-1-binding sites. […]
pIC50: −log10 of the molar value.

{"columns": ["molecule", "bound.type", "pIC50"],
 "data": [
  ["CC(C)c1c(-c2cc(-c3cncnc3)c(=O)n(C)c2)[nH]c2ccc(C3CCN(CC4CCOC4)CC3)cc12 (stereo not shown)", "=", 5.70],
  ["Cc1cc(-c2[nH]c3ccc(C4CCN(CC5CC5(F)F)CC4)cc3c2C(C)C)cn(C)c1=O (stereo not shown)", "=", 5.15],
  ["Cc1cc(-c2[nH]c3ccc(C4CCN(C(=O)CN(C)C)CC4)cc3c2C(C)C)nn(C)c1=O", "=", 5.48],
  ["Cc1cc(-c2[nH]c3ccc(C4CCN(CC(=O)NC[C@H](C)O)CC4)cc3c2C(C)C)cn(C)c1=O", "≤", 4.30],
  ["CCn1cc(-c2[nH]c3ccc(C4CCN(CC(=O)N(C)C)CC4)cc3c2C(C)C)cc(C)c1=O", "=", 4.83],
  ["CC(C)c1c(-c2ccc(=O)n(C)c2)[nH]c2ccc(C3CCN(C(=O)CN(C)C)CC3)cc12", "=", 5.74],
  ["Cc1cc(-c2[nH]c3ccc(C4CCN(C5CCOCC5)CC4)cc3c2C(C)C)cn(Cc2ccccc2)c1=O", "=", 5.81]
]}

* * *

Items are presented alongside their recorded pIC50.
tested.system: human TLR9 (Homo sapiens, UniProt Q9NR96)
Sequence (Q9NR96 26-1032): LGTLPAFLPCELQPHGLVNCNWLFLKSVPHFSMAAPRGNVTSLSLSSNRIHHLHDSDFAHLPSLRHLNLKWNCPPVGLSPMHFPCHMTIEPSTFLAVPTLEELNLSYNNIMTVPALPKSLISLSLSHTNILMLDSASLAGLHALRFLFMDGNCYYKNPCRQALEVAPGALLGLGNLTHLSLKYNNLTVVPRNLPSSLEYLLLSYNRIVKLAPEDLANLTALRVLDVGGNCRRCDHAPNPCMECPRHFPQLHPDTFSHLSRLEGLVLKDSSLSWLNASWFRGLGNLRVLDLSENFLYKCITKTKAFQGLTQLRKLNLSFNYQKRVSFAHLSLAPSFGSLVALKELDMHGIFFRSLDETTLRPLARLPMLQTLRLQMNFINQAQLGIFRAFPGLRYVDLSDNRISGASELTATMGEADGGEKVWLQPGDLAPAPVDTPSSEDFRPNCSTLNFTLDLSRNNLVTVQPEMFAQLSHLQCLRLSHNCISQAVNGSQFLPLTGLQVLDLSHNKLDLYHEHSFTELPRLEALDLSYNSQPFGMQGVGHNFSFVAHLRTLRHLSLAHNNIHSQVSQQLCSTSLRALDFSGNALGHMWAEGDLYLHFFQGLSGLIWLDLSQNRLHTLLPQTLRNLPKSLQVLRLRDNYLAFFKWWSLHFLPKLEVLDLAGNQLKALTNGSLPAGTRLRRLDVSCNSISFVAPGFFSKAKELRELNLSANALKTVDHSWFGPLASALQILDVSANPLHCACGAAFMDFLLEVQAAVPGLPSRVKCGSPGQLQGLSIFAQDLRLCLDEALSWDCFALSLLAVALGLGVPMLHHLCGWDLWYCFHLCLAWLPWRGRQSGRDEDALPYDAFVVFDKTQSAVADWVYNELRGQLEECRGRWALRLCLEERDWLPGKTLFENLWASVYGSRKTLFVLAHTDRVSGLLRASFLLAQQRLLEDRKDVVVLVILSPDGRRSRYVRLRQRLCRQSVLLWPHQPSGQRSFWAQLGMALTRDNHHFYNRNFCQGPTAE
measurement.description: TLR9 inhibition reporter assay (HEK-Blue SEAP reporter, ODN2006 stimulation)
test.parameters: HEK-Blue cells overexpressing human TLR9, SEAP reporter, ODN2006 5 nM, 22 hour incubation
pIC50: −log10 of the molar value.
value.type: pIC50

{"columns": ["molecule", "assay.result"],
 "data": [
  ["Cc1cc(-c2[nH]c3ccc(C4CCN(C)CC4)cc3c2C(C)C)cn(CCO)c1=O", 5.22],
  ["CCCN1CCC(c2ccc3[nH]c(-c4cc(-c5ccc(N6CCOCC6)nc5)c(=O)n(C)c4)c(C(C)C)c3c2)CC1", 6.15],
  ["Cc1cc(-c2[nH]c3ccc(C4CCNCC4)cc3c2C(C)C)cn(-c2ccccc2)c1=O", 5.68],
  ["Cc1cc(-c2[nH]c3ccc(C4CCNCC4)cc3c2C(C)C)cn(C2CCOC2)c1=O (stereo not shown)", 5.17]
]}
